measured metric: pIC50
Formally, pIC50 is defined as -log10 of the concentration c, with c in mol/L.

Give pIC50 (UniProtKB P11712) of the following molecule: CN(C)C(=O)c1ccc(N(Cc2ccc(O)cc2)C(=O)c2ccc(O)cc2O)cc1
Sequence (P11712 whole entry): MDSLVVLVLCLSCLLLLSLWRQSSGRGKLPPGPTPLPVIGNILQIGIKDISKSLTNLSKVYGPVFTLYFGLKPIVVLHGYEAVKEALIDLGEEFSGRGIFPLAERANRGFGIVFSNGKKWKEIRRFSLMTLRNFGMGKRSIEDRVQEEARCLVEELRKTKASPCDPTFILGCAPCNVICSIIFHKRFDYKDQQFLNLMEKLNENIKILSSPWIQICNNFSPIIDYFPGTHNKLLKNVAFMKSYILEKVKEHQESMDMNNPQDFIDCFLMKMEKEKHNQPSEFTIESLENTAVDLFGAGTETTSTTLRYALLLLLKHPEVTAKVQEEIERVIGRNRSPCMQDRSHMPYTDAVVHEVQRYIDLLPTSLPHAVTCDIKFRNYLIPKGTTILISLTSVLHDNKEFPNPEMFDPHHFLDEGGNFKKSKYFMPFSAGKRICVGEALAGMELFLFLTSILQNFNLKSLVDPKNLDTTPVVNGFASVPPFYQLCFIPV
4.87

---

# experimental target: [Pyruvate dehydrogenase (acetyl-transferring)] kinase isozyme 2, mitochondrial (Homo sapiens, UniProt Q15119)
# experiment summary: Inhibition of PDHK2 (unknown origin) by radiometric biochemical kinase assay
measured metric: IC50 (nM)
Could you give me the number in nM? Just the number is fine.

Quick one: IC50 of CN(C)C(=O)c1ccc(N(Cc2ccc(Br)o2)C(=O)c2ccc(O)cc2O)cc1 ?
10

Which IC50 is listed for CN(C)C(=O)c1ccc(N(Cc2ccc(C#N)cc2)C(=O)c2ccc(O)cc2O)cc1 ?
302

Form field: reported IC50 of CN(C)C(=O)c1ccc(N(Cc2ncc(Br)s2)C(=O)c2ccc(O)cc2O)cc1
64

I have this compound here, CC(=O)Nc1ccc(CN(C(=O)c2ccc(O)cc2O)c2ccc(C(=O)N3CCCCC3)cc2)cc1 , and I need its recorded IC50.
1620

GET /values?readout=IC50&item= CC(=O)Nc1ccc(CN(C(=O)c2ccc(O)cc2O)c2ccc(C(=O)O)cc2)cc1
7220

GET /values?readout=IC50&item= CC(=O)Nc1ccc(CN(C(=O)c2ccc(O)cc2O)c2ccc(C(=O)N(C)C)cc2)cc1
503

I have this compound here, CN(C)C(=O)c1ccc(N(Cc2cnc(Br)s2)C(=O)c2ccc(O)cc2O)cc1 , and I need its recorded IC50.
132

Give its IC50 value. Item: CN(C)C(=O)c1ccc(N(Cc2ccc(Cl)cc2)C(=O)c2ccc(O)cc2O)cc1
126

# query: IC50 of entry CN(C)C(=O)c1ccc(N(Cc2ccc(Cl)o2)C(=O)c2ccc(O)cc2O)cc1
193

---

# experimental target: [Pyruvate dehydrogenase (acetyl-transferring)] kinase isozyme 4, mitochondrial (Homo sapiens, UniProt Q16654)
# Sequence (Q16654 whole entry): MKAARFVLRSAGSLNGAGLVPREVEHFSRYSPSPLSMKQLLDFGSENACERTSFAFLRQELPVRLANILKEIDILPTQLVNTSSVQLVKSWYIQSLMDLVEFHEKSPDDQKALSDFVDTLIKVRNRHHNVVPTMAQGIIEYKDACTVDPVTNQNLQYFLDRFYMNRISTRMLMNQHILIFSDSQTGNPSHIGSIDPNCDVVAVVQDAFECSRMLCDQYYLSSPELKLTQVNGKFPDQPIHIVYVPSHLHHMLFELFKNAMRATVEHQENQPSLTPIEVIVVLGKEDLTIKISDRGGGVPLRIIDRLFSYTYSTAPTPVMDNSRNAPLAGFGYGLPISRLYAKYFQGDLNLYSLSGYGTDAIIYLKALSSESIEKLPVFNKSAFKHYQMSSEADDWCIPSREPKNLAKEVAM
# experiment summary: Inhibition of PDHK4 (unknown origin) by radiometric biochemical kinase assay
pIC50: −log10 of the molar value.
Each entry gets NO if its pIC50 stays under 7, and YES if its pIC50 is 7 or above.

Hello, I need to know if CC(=O)Nc1ccc(CN(C(=O)c2ccc(O)cc2O)c2ccc(C(=O)N(C)C)cc2)cc1 has measured pIC50 not below 7. Thanks!
NO

Hi, just wondering whether Cc1ccc(CN(C(=O)c2ccc(O)cc2O)c2ccc(C(=O)N(C)C)cc2)o1 shows pIC50 of 7 or higher.
YES

Tell me whether pIC50 is at least 7 here: CC(=O)Nc1ccc(CN(C(=O)c2ccc(O)cc2O)c2ccc(C(=O)NCCO)cc2)cc1
NO

Decide: pIC50 of CN(C)C(=O)c1ccc(N(Cc2ccc(I)o2)C(=O)c2ccc(O)cc2O)cc1 >= 7?
YES

Evaluate CN(C)C(=O)c1ccc(N(Cc2ccc(Br)s2)C(=O)c2ccc(O)cc2O)cc1 : pIC50 at minimum 7?
YES

Please check the record CN(C)C(=O)c1ccc(N(Cc2ncc(Br)s2)C(=O)c2ccc(O)cc2O)cc1 and state if its pIC50 is at or above 7.
YES

Dear colleague, could you confirm whether CN(C)C(=O)c1ccc(N(Cc2cc(Br)cs2)C(=O)c2ccc(O)cc2O)cc1 has pIC50 at or above 7?
YES

Determine whether this molecule has pIC50 no lower than 7: CN(C)C(=O)c1ccc(N(Cc2ccc(F)cc2)C(=O)c2ccccc2O)cc1
NO

Could you tell me if the measured pIC50 of CN(C)C(=O)c1ccc(N(Cc2ccc(Cl)cc2)C(=O)c2ccc(O)cc2O)cc1 reaches 7 or more?
NO

Assess whether reported pIC50 for CN(C)C(=O)c1ccc(N(Cc2ccc(C#N)cc2)C(=O)c2ccc(O)cc2O)cc1 sits at 7 or higher.
NO

---

measured metric: IC50 (µM)
Numeric only. Scale: µM

Write down the reported IC50 of CN(C)C(=O)c1ccc(N(Cc2cc(Br)cs2)C(=O)c2ccc(O)cc2O)cc1 , test system: UniProtKB P33261.
Sequence (P33261 whole entry): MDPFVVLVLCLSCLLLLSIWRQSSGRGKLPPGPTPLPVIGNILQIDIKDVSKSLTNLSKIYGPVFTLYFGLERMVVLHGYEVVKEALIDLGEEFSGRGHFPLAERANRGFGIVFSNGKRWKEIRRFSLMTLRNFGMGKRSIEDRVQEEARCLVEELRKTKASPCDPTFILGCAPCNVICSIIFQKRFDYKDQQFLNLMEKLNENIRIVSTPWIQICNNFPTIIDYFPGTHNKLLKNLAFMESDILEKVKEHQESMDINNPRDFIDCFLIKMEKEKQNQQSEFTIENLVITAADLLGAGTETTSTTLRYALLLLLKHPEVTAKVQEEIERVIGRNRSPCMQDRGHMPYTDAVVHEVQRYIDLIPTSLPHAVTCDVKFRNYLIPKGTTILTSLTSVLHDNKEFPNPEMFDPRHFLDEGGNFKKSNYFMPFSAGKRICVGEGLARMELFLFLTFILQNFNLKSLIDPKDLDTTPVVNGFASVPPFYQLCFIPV
7.8

---

I'd be grateful if you could share measured IC50 for these entries.
# experimental target: [Pyruvate dehydrogenase (acetyl-transferring)] kinase isozyme 4, mitochondrial (Homo sapiens)
# experiment summary: Inhibition of PDHK4 (unknown origin) assessed as reduction in NAD measured for 30 mins
Don't forget the unit after the value.

Please look up its IC50: CN(C)C(=O)c1ccc(N(Cc2ccc(O)cc2)C(=O)c2ccc(O)cc2O)cc1
1.31 µM

# IC50 lookup, item CN(C)C(=O)c1ccc(N(Cc2ccco2)C(=O)c2ccc(O)cc2O)cc1
0.58 µM

For the compound CN(C)C(=O)c1ccc(N(Cc2ccc(Br)o2)C(=O)c2ccc(O)cc2O)cc1 , what IC50 is on record?
0.31 µM

---

# experimental target: [Pyruvate dehydrogenase (acetyl-transferring)] kinase isozyme 4, mitochondrial (Homo sapiens, UniProt Q16654)
# experiment summary: Inhibition of PDHK4 (unknown origin) by radiometric biochemical kinase assay
pIC50: −log10 of the molar value.
Our labelling divides records by pIC50 into ranges: low: < 6; moderate: ≥ 6 and < 7; high: ≥ 7

Quick check: band for CN(C)C(=O)c1ccc(N(Cc2ccc(O)cc2)C(=O)c2ccc(O)cc2O)cc1
high

The entry to classify is CC(=O)Nc1ccc(CN(C(=O)c2ccc(O)cc2O)c2ccc(C(=O)N3CCCCC3)cc2)cc1 ; which class holds it?
low

Bin this entry: CN(C)C(=O)c1ccc(N(Cc2ccc(C(F)(F)F)cc2)C(=O)c2ccc(O)cc2O)cc1
moderate

Band assignment needed for CC(=O)Nc1ccc(CN(C(=O)c2ccc(O)cc2O)c2ccc(C(=O)NC3CC3)cc2)cc1 please.
low

// bin(item) where item = CC(=O)Nc1ccc(CN(C(=O)c2ccc(O)cc2O)c2ccc(C(=O)N3CCCC3)cc2)cc1
low

Category lookup for the compound CN(C)C(=O)c1ccc(N(Cc2ccc(F)cc2)C(=O)c2ccc(O)cc2O)cc1
high

---

Please provide measured IC50 for the entries that follow.
# experimental target: Heat shock protein HSP90 (Homo sapiens, UniProt P07900+P08238)
# experiment summary: Inhibition of HSP90 (unknown origin)
# Format: protein assay

Would you kindly share the measured IC50 for CN(C)C(=O)c1ccc(N(Cc2ccc(F)cc2)C(=O)c2ccc(O)cc2O)cc1 ?
5.2 µM

For the compound shown here, Cc1cnc(Cl)nc1-c1ccc(N(Cc2ccc(CNC(=O)C(F)F)cc2)C(=O)c2ccc(O)cc2O)cc1 , give the reported IC50.
> 10 µM

What IC50 value was documented for this compound, CN(C)C(=O)c1ccc(N(Cc2cc(Br)cs2)C(=O)c2ccc(O)cc2O)cc1 ?
5.79 µM

Would you kindly share the measured IC50 for CN(C)C(=O)c1ccc(N(Cc2ccc(O)cc2)C(=O)c2ccc(O)cc2O)cc1 ?
> 10 µM

// returns reported IC50 for input CN(C)C(=O)c1ccc(N(Cc2ccc(Br)o2)C(=O)c2ccc(O)cc2O)cc1
0.83 µM

Query (compound): CN(C)C(=O)c1ccc(N(Cc2ccco2)C(=O)c2ccc(O)cc2O)cc1 ; field requested: IC50
0.77 µM

Item CN(C)C(=O)c1ccc(N(Cc2ncc(Br)s2)C(=O)c2ccc(O)cc2O)cc1 has what recorded IC50?
6 µM

---

# experimental target: [Pyruvate dehydrogenase (acetyl-transferring)] kinase isozyme 4, mitochondrial (Homo sapiens, UniProt Q16654)
# experiment summary: Inhibition of PDHK4 (unknown origin) by radiometric biochemical kinase assay
measured metric: IC50 (nM)
Numbers only here, please. The scale is nM.

I am curious: what IC50 value has been reported for CN(C)C(=O)c1ccc(N(CC2CCCCC2)C(=O)c2ccc(O)cc2O)cc1 ?
775

Any idea what its IC50 is? The compound is CN(C)C(=O)c1ccc(N(Cc2ccc(F)cc2)C(=O)c2ccc(O)cc2)cc1
390

Quick one: IC50 for CC(=O)Nc1ccc(CN(C(=O)c2ccc(O)cc2O)c2ccc(C(=O)N3CCOCC3)cc2)cc1 ?
5790

Looking for the measured IC50 of CC(=O)Nc1ccc(CN(C(=O)c2ccc(O)cc2O)c2ccc(C(=O)O)cc2)cc1 , can you help?
4670

For the compound CN(C)C(=O)c1ccc(N(Cc2ccccc2)C(=O)c2ccc(O)cc2O)cc1 , what IC50 is on record?
66

---

# experimental target: [Pyruvate dehydrogenase (acetyl-transferring)] kinase isozyme 3, mitochondrial (Homo sapiens)
# Sequence (Q15120 whole entry): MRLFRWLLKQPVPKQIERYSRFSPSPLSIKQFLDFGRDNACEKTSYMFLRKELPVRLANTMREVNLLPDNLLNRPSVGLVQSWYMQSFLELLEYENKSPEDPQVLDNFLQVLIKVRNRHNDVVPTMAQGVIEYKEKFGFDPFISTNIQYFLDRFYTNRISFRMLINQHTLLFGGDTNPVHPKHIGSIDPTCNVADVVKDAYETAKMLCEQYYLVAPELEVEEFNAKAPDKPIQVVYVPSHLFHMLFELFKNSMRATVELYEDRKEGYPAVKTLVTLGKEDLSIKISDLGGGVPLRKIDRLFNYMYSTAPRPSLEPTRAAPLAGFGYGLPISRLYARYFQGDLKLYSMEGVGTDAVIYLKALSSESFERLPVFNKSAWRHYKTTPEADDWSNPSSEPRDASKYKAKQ
# experiment summary: Inhibition of PDHK3 (unknown origin) by radiometric biochemical kinase assay
measured metric: pIC50
API: returns pIC50 as number; meaning -log10 of concentration in mol/L.

// pIC50 lookup, key: CN(C)C(=O)c1ccc(N(CC2CCCCC2)C(=O)c2ccc(O)cc2O)cc1
6.07

Request the reported pIC50 associated with Cc1ccc(CN(C(=O)c2ccc(O)cc2O)c2ccc(C(=O)N(C)C)cc2)o1
6.59

Which value of pIC50 has been reported for CN(C)C(=O)c1ccc(N(Cc2ccc(C#N)cc2)C(=O)c2ccc(O)cc2O)cc1 in the records?
6.34

Which pIC50 is reported for this compound? CN(C)C(=O)c1ccc(N(Cc2ccc(O)cc2)C(=O)c2ccc(O)cc2O)cc1
6.87

Entry under review: CN(C)C(=O)c1ccc(N(Cc2ccc(C#N)s2)C(=O)c2ccc(O)cc2O)cc1 . Reported pIC50?
7.01

Which pIC50 value is on record for CN(C)C(=O)c1ccc(N(Cc2ccc(F)cc2)C(=O)c2ccc(O)cc2O)cc1 ?
6.85

What measured pIC50 goes with CN(C)C(=O)c1ccc(N(Cc2ccc(I)o2)C(=O)c2ccc(O)cc2O)cc1 ?
8.30

What value of pIC50 has been recorded for this entry: CN(C)C(=O)c1ccc(N(Cc2cc(Br)cs2)C(=O)c2ccc(O)cc2O)cc1
7.10

Recorded pIC50 of CN(C)C(=O)c1ccc(N(Cc2ncc(Br)s2)C(=O)c2ccc(O)cc2O)cc1 , please.
7.19

Given the entry CN(C)C(=O)c1ccc(N(Cc2ccc(Cl)o2)C(=O)c2ccc(O)cc2O)cc1 , report its measured pIC50.
6.74

Which value of pIC50 has been reported for CN(C)C(=O)c1ccc(N(Cc2cnc(Br)s2)C(=O)c2ccc(O)cc2O)cc1 in the records?
7.05

Quick one: pIC50 of CN(C)C(=O)c1ccc(N(Cc2ccco2)C(=O)c2ccc(O)cc2O)cc1 ?
7.17

Any idea what its pIC50 is? The compound is CN(C)C(=O)c1ccc(N(Cc2ccc(Br)s2)C(=O)c2ccc(O)cc2O)cc1
7.05

Find the recorded pIC50 belonging to CN(C)C(=O)c1ccc(N(Cc2ccc(Br)o2)C(=O)c2ccc(O)cc2O)cc1 and report it.
7.23
